FYI, the data here is from PubChem BioAssay (NCI).

Assay: NCI Yeast Anticancer Drug Screen. Data for the mlh1 rad18 strain (AID 175)
Conditions: S. cerevisiae mlh1 rad18 strain growth inhibition; at 5.0 µM (retest, dose inferred, filed as 0.5); stronger effect = higher value
About 79,000 compounds went through this panel and 15% of them were active in at least one assay; those are over-represented in the sample as a whole.
recordedEndpoint: growth inhibition (%)
Expressed in %, but write only the number.

Problem: Tell me the measured growth inhibition of `C/C(=N\NC(=O)c1ccc([N+](=O)[O-])cc1)c1ccccc1` , please.
Result: 15

Problem: Entry `CC(C)N(CC(=O)c1ccc2cc(Cl)c3ccccc3c2c1)C(C)C` : reported growth inhibition = ?
Result: 39

Problem: // query growth inhibition value for entry CC(O)CC(O)CC1CCCO1 (stereo unspecified)
Result: 3

Problem: For the compound shown here, `CC(C)=CCC/C(C)=C/COC(=O)Nc1ccccc1` , give the reported growth inhibition.
Result: -13

Problem: Data request, read-out growth inhibition, for `CC(=O)Nc1ccc(C(C)(C)c2ccc(C)cc2)cc1`
Result: -1

Problem: So what does the record say about growth inhibition for Cc1ccccc1C1c2c(C)cccc2C(=O)CC1CC(=O)O (stereo unspecified) ?
Result: 8

Problem: Using the record for `COc1ccc2c(Cc3ccc(Cl)cc3)cncc2c1O` , report its growth inhibition.
Result: 21

Problem: Which measured growth inhibition value corresponds to `COc1ccc(/C=C2/C(=O)ON=C2C)cc1OC` ?
Result: -9

Problem: I'd like to know its growth inhibition. The compound in question is `C=CC(=O)Nc1ccccc1CC(c1c[nH]c2ccccc12)c1c[nH]c2ccccc12`
Result: 27

Problem: Given the compound COC1OC(CN=[N+]=[N-])C(OC(=O)c2ccccc2)C(OC(C)=O)C1OC(C)=O (stereo unspecified) , what is its reported growth inhibition?
Result: 13

Problem: Data request, read-out growth inhibition, for `c1ccc(CCN(Cc2nc3ccccc3[nH]2)Cc2nc3ccccc3[nH]2)cc1`
Result: -3

* * *

Assay: NCI Yeast Anticancer Drug Screen. Data for the rad50 strain (AID 155);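 also: 0% = growth of vehicle-only cultures of the same strain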
Conditions: S. cerevisiae rad50 strain growth inhibition; at 50.0 µM
About 79,000 compounds went through this panel and 15% of them were active in at least one assay; those are over-represented in the sample as a whole. Active and inactive are the calls of the source. No stated cut-off is given here; in the data, active means growth inhibition above about 70%; inactive means the rest.
Field 'call' accepts True for active, False for inactive

Problem: What did this assay record as the result for Nc1ccc(O)c2c1C(=O)c1ccccc1C2O (stereo not drawn) ?
Result: True

Problem: Per the records of this test, what outcome belongs to O=C(O)c1ccc(NC(c2ccccc2)c2ccc3cccnc3c2O)cc1 (stereo not drawn) ?
Result: True

Problem: What is the recorded call for this compound in the test? `CCCCCCCCN(CCCCCCCC)Cc1ccc(Br)cc1`
Result: True

Problem: Could you please tell me the result logged for `O=C(O)/C=C\c1cc2ccccc2c2ccccc12` in this assay?
Result: True

Problem: Per the records of this test, what outcome belongs to `CN(C(=O)C(Cl)Cl)c1ccc(-c2csc(-c3ccccc3)n2)cc1` ?
Result: False

Problem: Recorded test outcome, item O=C(Nc1cc(Cl)c(Cl)cc1Cl)C(=O)C(C(=O)c1ccc2ccccc2c1)C1OC(=O)c2ccccc21 (stereo not drawn)
Result: False

Problem: Any idea what this test logged for O=C(c1ccccc1)C1C(c2ccccc2)OP(c2ccccc2)(c2ccccc2)(c2ccccc2)C1c1ccccc1 (stereo not drawn) ?
Result: True

Problem: What classification did `C=C1C(=O)[C@@]23CC[C@H]4[C@@](C)(CCC[C@@]4(C)C(=O)OC)[C@@H]2CC[C@]1(O)C3` end up with in this test?
Result: True

Problem: Recorded test call requested for CC(CN(C)C)C(/C=C/c1ccc(Cl)c(Cl)c1)=N\Nc1ccccc1 (stereo not drawn)
Result: False

Problem: I'd appreciate the recorded outcome for `CN(C)Cc1cc(C(C)(C)C)cc(C2CCCCC2)c1O` from this test.
Result: False

Problem: For `CCCCOc1ccc(NC(=S)Nc2ccc(OCCN(CC)CC)cc2)cc1` , what call appears in the results of this test?
Result: False

Problem: Dear all, I need the recorded test outcome for COc1ccc2c(c1)C=C([N+](=O)[O-])C(C1OC(C)(C)OC1C1COC(C)(C)O1)O2 (stereo not drawn) , thank you.
Result: False

Problem: For this compound, state the assay outcome: `CCCCN1C(=O)C(=O)N(c2ccccc2)C1=O`
Result: False

Problem: Dear all, I need the recorded test outcome for `COc1ccc(OC)c2c(=S)c3ccccc3[nH]c12` , thank you.
Result: True

Problem: Each compound tested received a call. Report the one for `COc1cc(CNC(=O)CCCCCCCCCCSC#N)ccc1O` .
Result: True

Problem: // param item: `CN(NC(=O)CC(=O)NN(C)C(=S)c1ccccc1)C(=S)c1ccccc1` ; yields the recorded call
Result: False

Problem: GET /call?item= `C[N+](C)(C)CCN(Cc1cccs1)c1ccccn1` returns the recorded outcome of this test.
Result: False

Problem: What classification did `Sc1c(Br)cc(Br)cc1Br.[Ag]` end up with in this test?
Result: False

Problem: Which result was noted for this compound in the test: `COc1ccc2c(c1)[n+]([O-])c(-c1ccc(Cl)cc1)c(N)[n+]2[O-]`
Result: True

Problem: GET /call?item= `O=C1c2ccccc2C(=O)c2c(Nc3cc4c5c(ccc6c7ccc8c9c(cc(Nc%10cccc%11c%10C(=O)c%10ccccc%10C%11=O)c(c3c56)c97)-c3ccccc3C8=O)C(=O)c3ccccc3-4)cccc21` returns the recorded outcome of this test.
Result: False

Problem: For this compound, state the assay outcome: `O=c1nc(N2CCCC2)nc(N2CCCC2)s1`
Result: False

Problem: Please indicate how the test categorized `NC(N)=Nc1ccc(Cc2ccc(N=C(N)N)cc2)cc1` .
Result: False

Problem: Check the results log: what was the call for `CC(C)(C)c1ccc(O)c(CN(Cc2c(O)ccc3ccccc23)C2CCCCC2)c1` ?
Result: True

Problem: Returns: the outcome recorded for C=CCOC(=O)C(O)C(CC)CCCCC (stereo not drawn) in this assay.
Result: False

Problem: # lookup: test call for `NC(=O)c1c(Cl)nc2n1CCS2`
Result: False

Problem: What classification did `O=C1c2ccccc2C(=O)[C@@]23O[C@@]12C1(Oc2cccc4cccc(c24)O1)[C@@H]1O[C@@H]1[C@@H]3O` end up with in this test?
Result: True

Problem: Just curious, what result did `NS(=O)(=O)c1ccc(-n2cccc2)cc1` get here?
Result: False

Problem: Query: recorded result category for `O=C(O)/C=C/c1c2ccccc2cc2ccccc12` in this test
Result: True

Problem: Look up the recorded call for N#CC(c1ccc(Cl)cc1)c1ccc([N+](=O)[O-])cc1 (stereo not drawn) in this test.
Result: False

Problem: Fill in: this test's call for Clc1ccc(C2SCc3nc4ccccc4n32)c(Cl)c1 (stereo not drawn) is ___
Result: True

Problem: Given NC(=O)N/N=C/C(O)C(O)C(O)C(O)CO (stereo not drawn) , state the outcome it received in this test.
Result: True

Problem: Tell me the assay call for `NCc1cccc(O)c1O` please.
Result: True

Problem: Hi, do you know how CC1CC(N)=NC1C(=O)NCCC#N (stereo not drawn) came out in this test?
Result: False

Problem: I'd appreciate the recorded outcome for COC1OC(CBr)C(OC(c2ccccc2)(c2ccccc2)c2ccccc2)C(OC(c2ccccc2)(c2ccccc2)c2ccccc2)C1OC(c1ccccc1)(c1ccccc1)c1ccccc1 (stereo not drawn) from this test.
Result: True

Problem: What is the recorded call for this compound in the test? `Oc1cc(F)cc2cccnc12`
Result: True

Problem: Dear all, I need the recorded test outcome for `CCCCCCCCCCCCCC(=O)NO` , thank you.
Result: True

Problem: For `CCCCCCCCCCCC(=O)N(CC)CC` , what call appears in the results of this test?
Result: True

Problem: Entry `CCCCCc1cccc(CC(=O)OCC)n1` : call = ?
Result: False
